Can you tell me protein stability index for the items I'm about to list?
B1: ATL3 (parent)
chain: EKALASILLQDHIRDLDVVVVSVA

Variants of: B1
Assay: protein stability index of a GFP-peptide fusion (GPS, HEK-293T) (PSI 1-6); higher = more stable;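 further: lentivirally expressed fusions sorted by FACS into six bins by GFP to DsRed ratio, PSI derived from sequencing read proportions per bin multiplied by bin number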
Conditions: c terminus: a fixed tail appended
Respond numerically, and do not add a unit to the figure.

If you can, please state the reported protein stability index value of K2D .
2.78

If you can, please state the reported protein stability index value of L8A .
2.99

If you can, please state the reported protein stability index value of E1N .
2.93

If you can, please state the reported protein stability index value of V19K .
1.96

If you can, please state the reported protein stability index value of D17Y .
3.45

If you can, please state the reported protein stability index value of L16A .
1.31

If you can, please state the reported protein stability index value of D15V .
2.55

If you can, please state the reported protein stability index value of V19N .
1.72

If you can, please state the reported protein stability index value of V18T .
3.46

If you can, please state the reported protein stability index value of I13Y .
3.9

If you can, please state the reported protein stability index value of I7S .
2.85

If you can, please state the reported protein stability index value of S22P .
1.91

If you can, please state the reported protein stability index value of L9K .
3.25

If you can, please state the reported protein stability index value of L16P .
1.57

If you can, please state the reported protein stability index value of S6L .
3.06

If you can, please state the reported protein stability index value of V18Y .
3.61

If you can, please state the reported protein stability index value of V23L .
2.76

If you can, please state the reported protein stability index value of V18Q .
1.59

If you can, please state the reported protein stability index value of I7D .
2.51

If you can, please state the reported protein stability index value of V23G .
3.31

If you can, please state the reported protein stability index value of V21D .
3.39

If you can, please state the reported protein stability index value of L16R .
1.03

If you can, please state the reported protein stability index value of V20W .
3.67

If you can, please state the reported protein stability index value of V21C .
2.07

If you can, please state the reported protein stability index value of V20R .
2.2

If you can, please state the reported protein stability index value of A5T .
2.26

If you can, please state the reported protein stability index value of V18E .
2.48

If you can, please state the reported protein stability index value of V21R .
3.63

If you can, please state the reported protein stability index value of H12T .
2.26

If you can, please state the reported protein stability index value of V21P .
2.56

If you can, please state the reported protein stability index value of L8I .
2.89

If you can, please state the reported protein stability index value of Q10N .
2.98

If you can, please state the reported protein stability index value of L4Q .
1.69

If you can, please state the reported protein stability index value of D11K .
3.25

If you can, please state the reported protein stability index value of V18H .
1.06

If you can, please state the reported protein stability index value of R14D .
2.15

If you can, please state the reported protein stability index value of L9H .
2.71

If you can, please state the reported protein stability index value of V23Q .
1.96

If you can, please state the reported protein stability index value of V23S .
3.22

If you can, please state the reported protein stability index value of V20M .
1.82

If you can, please state the reported protein stability index value of R14P .
1.55

If you can, please state the reported protein stability index value of A5K .
1.74

If you can, please state the reported protein stability index value of V21Q .
2.6

If you can, please state the reported protein stability index value of L16D .
1.67

If you can, please state the reported protein stability index value of I7E .
2.37

If you can, please state the reported protein stability index value of L4E .
1.39
